test system: AncSZ; assay: phosphorylation enrichment, bacterial display (enrichment ratio); higher = better substrate or ligand; peptides without Tyr show the background;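 also: 11-residue human phosphosite peptides and single-mutation variants displayed on the E. coli surface, counted by deep sequencing, each peptide's frequency after selection divided by its frequency in the unselected input library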;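 also: frequency after pTyr selection over input frequency; kinase dosed for 20-30% of maximal phosphorylation in three min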
List of phosphorylation enrichment values.

Examples from the recorded data:
VFSIDYFRVGG [NTRK2_Y706_T704I_YF]	1.35
KPEKTYGLRKE [CEP43_Y267]	0.595
IVGRLYRLLTE [SETX_Y1978_L1976R]	1.1
KGKLIYLLGDS [NXPE1_Y350]	0.803
ELPEKYSQNIF [PKP2_Y626_YF]	0.989
FPCSVYVPDEW [INSR_Y1011]	1.5
VIGRMYDFHVL [RPF2_Y109_YF]	0.943
NGRQCYSCKGN [PLAUR_Y217]	0.481

stdin: phosphorylation enrichment lookup needed for TVINKYQGKLF [HGD_Y249] , thanks.
stdout: 0.514

stdin: Can you check FSCLPYRRLAY [SLC52A2_Y305_G306R] next?
stdout: 0.95
